- target or system: Alpha-2C adrenergic receptor (Homo sapiens)
- Sequence (P18825 whole entry): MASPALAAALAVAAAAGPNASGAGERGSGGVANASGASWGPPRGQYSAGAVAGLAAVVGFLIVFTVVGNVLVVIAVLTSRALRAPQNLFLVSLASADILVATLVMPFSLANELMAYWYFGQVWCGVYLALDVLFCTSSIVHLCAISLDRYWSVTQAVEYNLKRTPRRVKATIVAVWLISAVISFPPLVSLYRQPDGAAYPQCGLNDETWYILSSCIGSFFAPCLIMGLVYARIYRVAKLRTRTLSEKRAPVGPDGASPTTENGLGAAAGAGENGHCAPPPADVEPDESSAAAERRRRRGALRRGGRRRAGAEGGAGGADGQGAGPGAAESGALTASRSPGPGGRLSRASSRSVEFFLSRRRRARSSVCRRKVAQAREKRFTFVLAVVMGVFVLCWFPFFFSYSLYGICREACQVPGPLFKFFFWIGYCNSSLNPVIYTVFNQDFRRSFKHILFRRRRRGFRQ
reported metric: Ki (nM)
Report the figure in nM without appending any unit label.

GET /values?item= O=C(CCCN1C2CCC1CC(O)(c1ccc(Cl)cc1)C2)c1ccc(F)cc1 (stereo unspecified) &system= Alpha-2C adrenergic receptor (Homo sapiens) returns Ki: 143

###

Reported Ki values for a set of molecules
- target or system: 5-hydroxytryptamine receptor 2C (Homo sapiens, UniProt P28335)
- Sequence (P28335 whole entry): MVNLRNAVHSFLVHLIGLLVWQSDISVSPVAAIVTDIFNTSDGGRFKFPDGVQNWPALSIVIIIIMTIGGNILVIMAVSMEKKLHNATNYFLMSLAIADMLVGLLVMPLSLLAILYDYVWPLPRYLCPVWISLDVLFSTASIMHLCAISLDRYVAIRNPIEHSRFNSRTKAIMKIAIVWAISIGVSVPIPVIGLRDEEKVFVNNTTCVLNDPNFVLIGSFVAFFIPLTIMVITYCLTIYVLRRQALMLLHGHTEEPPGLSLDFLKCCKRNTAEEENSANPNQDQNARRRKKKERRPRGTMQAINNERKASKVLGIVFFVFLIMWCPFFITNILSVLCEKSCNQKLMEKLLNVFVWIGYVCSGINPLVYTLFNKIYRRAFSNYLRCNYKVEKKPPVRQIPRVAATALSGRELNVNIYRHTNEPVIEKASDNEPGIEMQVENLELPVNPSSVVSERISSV
Output should be the measured figure followed by the unit it is expressed in.

| molecule | Ki |
| --- | --- |
| O=C(CCCN1CCC(O)(c2ccc(Cl)cc2)C1)c1ccc(F)cc1 (stereo in doubt; 2b) | 1.25 µM |

Ki on 5-hydroxytryptamine receptor 2C (Homo sapiens, UniProt P28335) for O=C(CCCN1CCC(O)(c2ccc(Cl)cc2)C1)c1ccc(F)cc1 (single isomer, unassigned; (+)) is 3.6 µM
